B1: TPR t1 (parent)
chain: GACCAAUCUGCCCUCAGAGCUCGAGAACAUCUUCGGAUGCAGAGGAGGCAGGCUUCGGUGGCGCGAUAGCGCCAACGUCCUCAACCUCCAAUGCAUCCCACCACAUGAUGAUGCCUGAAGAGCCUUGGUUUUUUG

- Variants of: B1
- PROTOCOL DESCRIPTION: polymerase ribozyme fitness, log enrichment relative to wild type (log ratio); higher = more active; in vitro selection for triplet polymerase activity
Lab note: anything with polymerase ribozyme fitness (log ratio) at or over -3 counts as fulfilled; the rest go in not fulfilled.

Example entries begin here.
Exercise: Hello, I need to know if C40U C56G C70U has measured polymerase ribozyme fitness (log ratio) not below -3. Thanks!
Key: fulfilled

Exercise: Hello, I need to know if C86G G128A has measured polymerase ribozyme fitness (log ratio) not below -3. Thanks!
Key: fulfilled

Exercise: Hello, I need to know if G93C U106A has measured polymerase ribozyme fitness (log ratio) not below -3. Thanks!
Key: fulfilled

Exercise: Hello, I need to know if C73U G110C has measured polymerase ribozyme fitness (log ratio) not below -3. Thanks!
Key: not fulfilled

Exercise: Hello, I need to know if A46U C70U C79G U130C has measured polymerase ribozyme fitness (log ratio) not below -3. Thanks!
Key: not fulfilled

Exercise: Hello, I need to know if G42C G52U has measured polymerase ribozyme fitness (log ratio) not below -3. Thanks!
Key: fulfilled

New cases:
Exercise: Hello, I need to know if A5U A6G C86A C102A has measured polymerase ribozyme fitness (log ratio) not below -3. Thanks!
Key: not fulfilled

Exercise: Hello, I need to know if C13U G117U has measured polymerase ribozyme fitness (log ratio) not below -3. Thanks!
Key: fulfilled

Exercise: Hello, I need to know if C11A C73U C94U has measured polymerase ribozyme fitness (log ratio) not below -3. Thanks!
Key: fulfilled

Exercise: Hello, I need to know if C8G C62A C94A G120U has measured polymerase ribozyme fitness (log ratio) not below -3. Thanks!
Key: fulfilled

Exercise: Hello, I need to know if C53G G61C A83G C88G C104A has measured polymerase ribozyme fitness (log ratio) not below -3. Thanks!
Key: not fulfilled

Exercise: Hello, I need to know if G44C G71A has measured polymerase ribozyme fitness (log ratio) not below -3. Thanks!
Key: fulfilled

Exercise: Hello, I need to know if C12A C40A C86A C101U U106G has measured polymerase ribozyme fitness (log ratio) not below -3. Thanks!
Key: not fulfilled

Exercise: Hello, I need to know if G45A G61U U130G has measured polymerase ribozyme fitness (log ratio) not below -3. Thanks!
Key: fulfilled

Exercise: Hello, I need to know if C31U U96G has measured polymerase ribozyme fitness (log ratio) not below -3. Thanks!
Key: not fulfilled

Exercise: Hello, I need to know if C3A C12A G58A A83C has measured polymerase ribozyme fitness (log ratio) not below -3. Thanks!
Key: fulfilled

Exercise: Hello, I need to know if C11G C49A G52U U131A has measured polymerase ribozyme fitness (log ratio) not below -3. Thanks!
Key: fulfilled

Exercise: Hello, I need to know if U33C C70G has measured polymerase ribozyme fitness (log ratio) not below -3. Thanks!
Key: not fulfilled

Exercise: Hello, I need to know if G60A G135A has measured polymerase ribozyme fitness (log ratio) not below -3. Thanks!
Key: fulfilled

Exercise: Hello, I need to know if C8U G51A C64U C104G G120C has measured polymerase ribozyme fitness (log ratio) not below -3. Thanks!
Key: not fulfilled

Exercise: Hello, I need to know if C8G G45A G52U C53A C98U G110A G120C U129A has measured polymerase ribozyme fitness (log ratio) not below -3. Thanks!
Key: not fulfilled

Exercise: Hello, I need to know if A2G G63C has measured polymerase ribozyme fitness (log ratio) not below -3. Thanks!
Key: fulfilled

Exercise: Hello, I need to know if C3U A41G C102A G120A has measured polymerase ribozyme fitness (log ratio) not below -3. Thanks!
Key: not fulfilled

Exercise: Hello, I need to know if U59C G107A has measured polymerase ribozyme fitness (log ratio) not below -3. Thanks!
Key: not fulfilled

Exercise: Hello, I need to know if A18G C28A U112A has measured polymerase ribozyme fitness (log ratio) not below -3. Thanks!
Key: not fulfilled

Exercise: Hello, I need to know if C70U A111G G120C has measured polymerase ribozyme fitness (log ratio) not below -3. Thanks!
Key: not fulfilled

Origin of the recorded values: the RNAGym collection of RNA variant scans (doi:10.1073/pnas.2313332121)
